# Tested on: human APOE RNA
# experimental.details: Dose-dependent inhibition of human APOE RNA in HepG2 cells, electroporation, 50,000 cells per well, RT-PCR normalized to GAPDH (Example 4, Tables 8-10)
# Type: cell-based
# settings: 205 nM; HepG2, electroporation, 24-hour treatment
Strand notation (5' to 3'): a small letter for the sugar, then the base; units joined by * are phosphorothioate-linked, units joined directly phosphodiester-linked; [ ] holds rarer units or linkages, { } end groups; capitals alone tell only the bases. [ms] = mesyl phosphoramidate linkage; k = constrained ethyl (cEt); [5mC] = 5-methylcytosine; d = 2'-deoxy (DNA)
observed.property: APOE RNA (% UTC)
Give bare numbers, in % UTC.

1) 1746786 (k[5mC]*kT*dT[ms]dG[ms]kG*dT[ms]dG[ms]dA[ms]dA[ms]dT*d[5mC]*dT*dT*dT*dA[ms]dT*kT*kA*dA[ms]kA; antisense) [Compound 1746786] : 87
2) 1746813 (k[5mC]*dT[ms]dT[ms]kG*dG[ms]kT*dG[ms]dA[ms]dA[ms]dT*d[5mC]*dT*dT*dT*dA[ms]dT*dT[ms]kA*kA*kA; antisense) [Compound 1746813] : 100
3) 1746796 (k[5mC]*kT*dT[ms]dG[ms]kG*dT[ms]dG[ms]dA[ms]dA[ms]dT*d[5mC]*dT*dT*dT*dA[ms]dT*kT*dA[ms]kA*kA; antisense) [Compound 1746796] : 119
4) 1746800 (k[5mC]*dT[ms]kT*dG[ms]dG[ms]kT*dG[ms]dA[ms]dA[ms]dT*d[5mC]*dT*dT*dT*dA[ms]dT*kT*dA[ms]kA*kA; antisense) [Compound 1746800] : 97
5) 1746804 (k[5mC]*kT*kT*dG[ms]dG[ms]dT[ms]dG[ms]dA[ms]dA[ms]dT*d[5mC]*dT*dT*dT*dA[ms]dT*dT[ms]kA*kA*kA; antisense) [Compound 1746804] : 66

Please state, for each entry, its recorded APOE RNA (% UTC).
1. 1746797 (k[5mC]*kT*dT[ms]dG[ms]dG[ms]kT*dG[ms]dA[ms]dA[ms]dT*d[5mC]*dT*dT*dT*dA[ms]dT*kT*dA[ms]kA*kA; antisense) [Compound 1746797]
2. 1746785 (k[5mC]*kT*dT[ms]kG*dG[ms]dT[ms]dG[ms]dA[ms]dA[ms]dT*d[5mC]*dT*dT*dT*dA[ms]dT*kT*kA*dA[ms]kA; antisense) [Compound 1746785]
3. 1746809 (k[5mC]*dT[ms]kT*dG[ms]kG*dT[ms]dG[ms]dA[ms]dA[ms]dT*d[5mC]*dT*dT*dT*dA[ms]dT*dT[ms]kA*kA*kA; antisense) [Compound 1746809]
4. 1746787 (k[5mC]*kT*dT[ms]dG[ms]dG[ms]kT*dG[ms]dA[ms]dA[ms]dT*d[5mC]*dT*dT*dT*dA[ms]dT*kT*kA*dA[ms]kA; antisense) [Compound 1746787]
5. 1746803 (k[5mC]*dT[ms]dT[ms]kG*dG[ms]kT*dG[ms]dA[ms]dA[ms]dT*d[5mC]*dT*dT*dT*dA[ms]dT*kT*dA[ms]kA*kA; antisense) [Compound 1746803]

Result:
129
83
81
87
68
